The reported numbers originate from ChEMBL document CHEMBL1201862.

# System: SK-MEL-5
# testSummary: NCI tumour cell line growth inhibition, 48 h
Activity calls are given as the source filed them. Rule as the data show it: active = GI50 up to about 1.1 µM and inactive = higher.
A correct response names exactly one class from active, inactive

# fetch the recorded call for Cc1oc2c(c1C(=O)c1ccccc1)C(=O)c1ccccc1C2=O here
inactive

# fetch the recorded call for O=C(Cc1ccc(Cl)cc1)Nc1ccc2oc(-c3ccccc3)nc2c1 here
inactive

# fetch the recorded call for CC1=C(C)SC(=C2Sc3c(n(C)c(=O)n(C)c3=O)S2)S1 here
inactive

# fetch the recorded call for O=c1oc2ncccc2n1Cc1ccc([N+](=O)[O-])cc1 here
inactive

# fetch the recorded call for Nc1cc(C(=O)O)nc(O)n1 here
inactive

# fetch the recorded call for CC1CCC2C(C)C(=O)OC3OC4(C)CCC1C32OO4 (stereo unspecified) here
inactive

# fetch the recorded call for Cn1c(=O)c2c(ncn2CCNC(CO)C(O)c2ccc([N+](=O)[O-])cc2)n(C)c1=O (stereo unspecified) here
inactive

# fetch the recorded call for Cn1cc(NC(=O)c2cc(NC(=O)CCCCCCCC(=O)Nc3cc(C(=O)Nc4cc(C(=O)NCCC(=N)N)n(C)c4)n(C)c3)cn2C)cc1C(=O)NCCC(=N)N here
inactive

# fetch the recorded call for Cc1ccc(Oc2cc(C)ccc2P(=O)(O)O)cc1 here
inactive

# fetch the recorded call for COc1cc2c(cc1OCCCNC(=O)c1cc3ccccc3[nH]1)N=C[C@@H]1CCCN1C2=O here
active

# fetch the recorded call for Oc1nc(-c2cccc(F)c2)nc2ccccc12 here
inactive

----------
# Tested on: OVCAR-8
# testSummary: NCI tumour cell line growth inhibition, 48 h
Activity calls are given as the source filed them. No stated cut-off is given here; in the data, active = GI50 up to about 1.1 µM and inactive = higher.
endpointName: GI50

Returns the measured GI50 for the input compound. Input: Oc1ccccc1CNCc1nc2ccccc2[nH]1
29 µM (inactive)

Returns the measured GI50 for the input compound. Input: CCOC(=O)C(NC(C)=O)(Nc1ccc(F)cc1)C(F)(F)F (stereo not drawn)
> 100 µM (inactive)

Returns the measured GI50 for the input compound. Input: O=C(NCCNCCO)N/N=C/c1ccc([N+](=O)[O-])cc1
> 100 µM (inactive)

Returns the measured GI50 for the input compound. Input: Cc1cc(-c2ccc(Cl)cc2)c(C#N)c(=S)n1C1OC(CO)C(O)C(O)C1O (stereo not drawn)
> 100 µM (inactive)

Returns the measured GI50 for the input compound. Input: CC(=O)N(O)Cc1ccccc1
> 100 µM (inactive)

Returns the measured GI50 for the input compound. Input: Oc1ccc(Cl)cc1-c1cc(-c2ccccc2)nc(S)n1
> 100 µM (inactive)

Returns the measured GI50 for the input compound. Input: COc1ccc2nc3n(c2c1)C(c1c(F)cccc1F)SC3 (stereo not drawn)
36.6 µM (inactive)

Returns the measured GI50 for the input compound. Input: C[C@H]1CC[C@]2(NC1)O[C@H]1C[C@H]3[C@@H]4CC[C@H]5C[C@@H](O[C@@H]6O[C@H](CO)[C@H](O[C@@H]7O[C@H](CO)[C@@H](O)[C@H](O[C@@H]8OC[C@@H](O)[C@H](O)[C@H]8O)[C@H]7O[C@@H]7O[C@H](CO)[C@@H](O)[C@H](O)[C@H]7O)[C@H](O)[C@H]6O)CC[C@]5(C)[C@H]4CC[C@]3(C)[C@H]1[C@@H]2C [TOMATINE]
2.24 µM (inactive)

----------
# System: NCI-H460
# testSummary: NCI tumour cell line growth inhibition, 48 h
Active and inactive are the calls of the source. Cut-off read from the data, not from the text of the source: active = GI50 up to about 1.1 µM and inactive = higher. Where a SMILES comes first, the peptide text is derived from it. The star is where a group is joined. Boc = CC(C)(C)OC(=O)*
endpointName: GI50

Returns the measured GI50 for the input compound. Input: CC1CC[C@@]2(OC1)O[C@H]1[C@H](O)[C@H]3[C@@H]4CC[C@H]5C[C@@H](OC6OC(CO)C(OC7OC(CO)C(O)C(OC8OCC(O)C(O)C8O)C7OC7OC(CO)C(O)C(O)C7OC7OC(CO)C(O)C(O)C7O)C(O)C6O)[C@H](O)C[C@]5(C)[C@H]4CC[C@]3(C)[C@H]1[C@@H]2C (stereo partly specified)
> 10 µM (inactive)

Returns the measured GI50 for the input compound. Input: Cc1oc2c(c1C(=O)c1ccccc1)C(=O)c1ccccc1C2=O
9.38 µM (inactive)

Returns the measured GI50 for the input compound. Input: COC(=O)C(Cc1nc2ccccc2nc1O)C(=O)C(=O)Nc1ccc([N+](=O)[O-])cc1[N+](=O)[O-] (stereo unspecified)
22.1 µM (inactive)

Returns the measured GI50 for the input compound. Input: CC(C)(C)OC(=O)NCCCCC1NC(=O)[C@@H]2Cc3c([nH]c4ccccc34)C(c3ccccc3)N2C1=O (stereo partly specified)
30.4 µM (inactive)

Returns the measured GI50 for the input compound. Input: Cc1cc(C)c(C#N)c(SC(=S)NC(=O)c2ccccc2)n1
> 100 µM (inactive)

Returns the measured GI50 for the input compound. Input: COC(=O)C1=C(OC(=O)c2ccccc2)C(C(=O)OC)[C@@]2(O)[C@@H](C(=O)OC)[C@H](C)C[C@@H]1[C@@H]2C(=O)OC (stereo partly specified)
25.3 µM (inactive)

Returns the measured GI50 for the input compound. Input: C=CC12CN(C)C3C4COC(CC41)C1(C(=O)Nc4ccccc41)C32 (stereo unspecified)
166 µM (inactive)

Returns the measured GI50 for the input compound. Input: COc1nc2ccc(COc3ccc(C(=O)O)cc3)cc2nc1OC
> 100 µM (inactive)

Returns the measured GI50 for the input compound. Input: COC(=O)/C=C\C(C#N)(C#N)/N=C/c1ccc(C)cc1
19.6 µM (inactive)

Returns the measured GI50 for the input compound. Input: COC(=O)C(Cc1c[nH]c2ccccc12)NC(=O)C(Cc1c[nH]c2ccccc12)NC(=O)C(Cc1c[nH]c2ccccc12)NC(=O)OC(C)(C)C (stereo not drawn) (Boc-Trp-Trp-Trp-OMe; configuration not given here)
20.2 µM (inactive)

Returns the measured GI50 for the input compound. Input: COC(=O)c1cc(C)n(CN(Cc2ccccc2)Cn2nc(C(=O)OC)cc2C)n1
> 100 µM (inactive)

Returns the measured GI50 for the input compound. Input: COc1cc(/C=C2/SC(c3ccccc3)N(c3cc(Cl)ccc3Cl)C2=O)cc(OC)c1OC (stereo unspecified)
> 100 µM (inactive)

Returns the measured GI50 for the input compound. Input: CC(C)(C)OC(=O)CN1CCNCCN(CC(=O)OC(C)(C)C)CC1
> 100 µM (inactive)

Returns the measured GI50 for the input compound. Input: COc1cccc(NC(=O)CC(=O)N2N=C(C)C(/N=N/c3ccc(S(=O)(=O)CCOS(=O)(=O)O)cc3)C2=O)c1 (stereo unspecified)
4.49 µM (inactive)

Returns the measured GI50 for the input compound. Input: COC1=C(OC)C(=O)C(Cc2c(Cl)nc3sc(C)cn23)=C(C)C1=O
16.7 µM (inactive)

Returns the measured GI50 for the input compound. Input: Cn1cc(NC(=O)c2cc(NC(=O)CCCCCCCC(=O)Nc3cc(C(=O)Nc4cc(C(=O)NCCC(=N)N)n(C)c4)n(C)c3)cn2C)cc1C(=O)NCCC(=N)N
4.69 µM (inactive)

----------
# Test system: NCI/ADR-RES
# testSummary: NCI tumour cell line growth inhibition, 48 h
Active and inactive are the calls of the source. No stated cut-off is given here; in the data, active = GI50 up to about 1.1 µM and inactive = higher.
For each of the compounds below, state its GI50.

Form entry - test system: NCI/ADR-RES; read-out: GI50; compound: O=c1c2nn[nH]c2nc2n1CC(c1ccccc1)S2 (stereo unspecified)
> 100 µM (inactive)

Form entry - test system: NCI/ADR-RES; read-out: GI50; compound: COc1ccc(N(CN2C(=O)CCC2C(=O)O)C(C)=O)cc1 (stereo unspecified)
> 100 µM (inactive)

Form entry - test system: NCI/ADR-RES; read-out: GI50; compound: CC(=O)c1cc(C)n2c1CS[C@@H]2c1ccccc1
50.1 µM (inactive)

Form entry - test system: NCI/ADR-RES; read-out: GI50; compound: COCCOC(=O)C1=C(O)c2ccccc2S(=O)(=O)N1C
> 100 µM (inactive)

Form entry - test system: NCI/ADR-RES; read-out: GI50; compound: COc1cc(S(=O)(=O)N/N=C/C=C/c2ccccc2)c(OC)cc1NC(C)=O
9.59 µM (inactive)

Form entry - test system: NCI/ADR-RES; read-out: GI50; compound: [O-][s+]1c2c(Cc3ccccc3)c(Cc3ccccc3)c1CCc1cccc(c1)CC2
14.4 µM (inactive)

----------
# Tested on: EKVX
# testSummary: NCI tumour cell line growth inhibition, 48 h
Active and inactive are the calls of the source. No stated cut-off is given here; in the data, active = GI50 up to about 1.1 µM and inactive = higher.
A correct response names exactly one class from active, inactive

# fetch the recorded call for COc1ccc(C2=C(Cl)c3cc(OC)c(OC)cc3C2=O)cc1OC here
inactive

# fetch the recorded call for CN(C)C1(N(C)C)Oc2c(c(=O)n(C)c(=O)n2C)C(c2ccc(C(F)(F)F)cc2)C1(F)F (stereo unspecified) here
inactive

# fetch the recorded call for CC(C)(C)C1(c2ccc(C3(c4ccccc4)Oc4ccccc4S3)[nH]2)Oc2ccccc2S1 (stereo unspecified) here
inactive

# fetch the recorded call for CC1CC[C@@]2(OC1)O[C@H]1[C@H](O)[C@H]3[C@@H]4CC[C@H]5C[C@@H](OC6OC(CO)C(OC7OC(CO)C(O)C(OC8OCC(O)C(O)C8O)C7OC7OC(CO)C(O)C(O)C7OC7OC(CO)C(O)C(O)C7O)C(O)C6O)[C@H](O)C[C@]5(C)[C@H]4CC[C@]3(C)[C@H]1[C@@H]2C (stereo partly specified) here
inactive

# fetch the recorded call for COc1cc(/C=C/C=C2\CC(C)C/C(=C\C=C\c3ccc(O)c(OC)c3)C2=O)ccc1O (stereo unspecified) here
inactive

# fetch the recorded call for CC1=C[P+](Cc2ccccc2)(c2ccccc2)CC1 (stereo unspecified) here
inactive

# fetch the recorded call for O=C1C(Cl)N(c2ccc(Cl)cc2Cl)C1c1c[nH]c2ccccc12 (stereo unspecified) here
inactive

# fetch the recorded call for COc1nc2ccc(COc3ccc(C(=O)O)cc3)cc2nc1OC here
inactive

# fetch the recorded call for CCCCC[C@@H]1OCO[C@@]2(C)/C=C(C)\C=C/C(=O)O[C@H]([C@@H](C)[C@@H](O)[C@H](C)[C@@]3(O)C[C@@H](O[C@H]4C[C@@H](O)[C@H](O)[C@@H](C)O4)[C@H](C)[C@@H](C)O3)[C@@H](OC)/C=C\C=C(\C)C[C@@H]1[C@@H]2O (stereo in doubt) here
active

# fetch the recorded call for O=C(/N=C(/Nc1ccccc1)SCS/C(=N\C(=O)c1ccco1)Nc1ccccc1)c1ccco1 here
inactive

# fetch the recorded call for OCN(CO)c1ccc2c(c1)Cc1cc(F)ccc1-2 here
inactive

# fetch the recorded call for COc1ccccc1N1CCN(Cn2c(=O)oc3cccnc32)CC1 here
inactive

# fetch the recorded call for Cn1c(-c2ccccc2)c/c(=N\NS(C)(=O)=O)c2cc(S(=O)(=O)O)ccc21 here
inactive

# fetch the recorded call for CCOC(=O)c1c[nH]c(C(=O)C=[N+]=[N-])c1C1CCN(CC)C1=S (stereo unspecified) here
inactive

# fetch the recorded call for COc1cccc(NC(=O)CC(=O)N2N=C(C)C(/N=N/c3ccc(S(=O)(=O)CCOS(=O)(=O)O)cc3)C2=O)c1 (stereo unspecified) here
inactive

# fetch the recorded call for O=C(O)CN(CC(=O)O)C1CCCCC1N(CC(=O)O)CC(=O)NCCN=C=S (stereo unspecified) here
inactive
